Reference source for all entries: patent US20200079833A1

# ASSAY_TARGET: GLP-1 receptor (GLP-1R), primary cAMP assay (human, UniProt P43220 24-463)
# ASSAY_COMMENT: cell-based or functional assay
Starred links: 1 amine or outer side, 2 acyl side, 3 side chain; linkers in the order of their positions; H or OH if unused. Non-standard residues stand in square brackets, D forms with d. Groups on a side chain read outwards from the residue. Primed or numbered codes have the meaning given here. No end group written: not given here. *: point of attachment. γGlu = O=C(O)[C@H](CCC(=O)[*:2])N[*:1]; αMeF = C[C@](N)(Cc1ccccc1)C(=O)O; αMeK = C[C@](N)(CCCCN)C(=O)O; Lauroyl = CCCCCCCCCCCC(=O)*; αMeS = C[C@](N)(CO)C(=O)O; PEG2′ = not defined here; Aib = CC(C)(N)C(=O)O
READOUT_KIND: Primary assay EC50 (cAMP), n1 (nM)

1. H[Aib]EGS[αMeF]TSDV[αMeS]SYK([PEG2′-PEG2′-γGlu-Lauroyl])EGEAA[αMeK]EFIAK([PEG2′-PEG2′-γGlu-Lauroyl])VVEGG-NH2 [SEQ ID NO: 269]
2. H[Aib]EGS[αMeF]TSDV[αMeS]SK([PEG2′-PEG2′-γGlu-Lauroyl])LEGEAA[αMeK]EFIAWK([PEG2′-PEG2′-γGlu-Lauroyl])VEGG-NH2 [SEQ ID NO: 264]
# input Hey, which is lower on measured Primary assay EC50 (cAMP), n1, 1 or 2 ? Label of pick, please.
# output 1
(1: 0.00401 nM, 2: 0.0182 nM)
